- Test target: human liver recombinant fructose-1,6-bisphosphatase (hFBPase) (Homo sapiens, UniProt P09467)
- Sequence (P09467 1-338): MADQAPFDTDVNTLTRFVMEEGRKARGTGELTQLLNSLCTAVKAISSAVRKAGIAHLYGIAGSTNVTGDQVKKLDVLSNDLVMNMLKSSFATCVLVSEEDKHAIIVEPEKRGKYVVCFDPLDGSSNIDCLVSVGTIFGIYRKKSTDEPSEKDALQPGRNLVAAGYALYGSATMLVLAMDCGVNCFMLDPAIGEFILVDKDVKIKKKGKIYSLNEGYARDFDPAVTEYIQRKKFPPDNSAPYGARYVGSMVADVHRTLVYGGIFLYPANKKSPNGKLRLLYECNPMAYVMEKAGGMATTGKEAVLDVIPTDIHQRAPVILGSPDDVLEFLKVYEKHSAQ
- Experiment summary: Inhibition of human liver recombinant fructose-1,6-bisphosphatase (spectrophotometric coupled PGI/G6PDH assay)
- Format: biochemical
- Measurement setup: human liver recombinant enzyme; 0.167 mM fructose-1,6-bisphosphate, pH 7.5, room temperature, 340 nm
Assay metric: IC50 (µM)
Answer with a number only, understood to be in µM.

Need IC50 of CC(C)(C)c1ccc(C(=O)Nc2[nH]c(Cc3ccc(C(=O)N4CCCC4)o3)nc2C(N)=O)cc1 [Example 8.5] , thanks. 36

Need IC50 of CC(C)(C)c1ccc(C(=O)Nc2[nH]c(Cc3ccc(C(=O)O)o3)nc2C(N)=O)cc1 [Example 6.8] , thanks. 23

Need IC50 of CCCCCc1ccc(NC(=O)Nc2[nH]c(Cc3ccc(C(=O)O)o3)nc2C(N)=O)cc1 [Example 7.8] , thanks. 24

Need IC50 of CCCc1ccc(C(=O)Nc2[nH]c(Cc3ccc(C(=O)O)o3)nc2C(N)=O)cc1 [Example 6] , thanks. 28

Need IC50 of CC(C)c1cccc(C(C)C)c1NC(=O)Nc1[nH]c(Cc2ccc(C(=O)O)o2)nc1C(N)=O [Example 7.9] , thanks. 42
